B1: SMTNL2 (parent)
chain: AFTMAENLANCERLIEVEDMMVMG

Variants of: B1
Assay: protein stability index of a GFP-peptide fusion (GPS, HEK-293T) (PSI 1-6); higher = more stable;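 note: lentivirally expressed fusions sorted by FACS into six bins by GFP to DsRed ratio, PSI derived from sequencing read proportions per bin multiplied by bin number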
Conditions: c terminus: a fixed tail appended
Provide the reported protein stability index of each item.
Just the number, please, no unit attached.

Q: Query: protein stability index; subject: V17F
A: 2.37

Q: Query: protein stability index; subject: N7T
A: 2.62

Q: Query: protein stability index; subject: D19K
A: 3.26

Q: Query: protein stability index; subject: V22W
A: 1.77

Q: Query: protein stability index; subject: A9E
A: 3.65

Q: Query: protein stability index; subject: L14F
A: 2.62

Q: Query: protein stability index; subject: V22I
A: 1.78

Q: Query: protein stability index; subject: N10I
A: 1.86

Q: Query: protein stability index; subject: M23G
A: 1.7

Q: Query: protein stability index; subject: N7V
A: 2.66

Q: Query: protein stability index; subject: E16K
A: 1.89

Q: Query: protein stability index; subject: M23K
A: 2.8

Q: Query: protein stability index; subject: L8M
A: 3.3

Q: Query: protein stability index; subject: E12I
A: 2.73

Q: Query: protein stability index; subject: G24S
A: 2

Q: Query: protein stability index; subject: F2C
A: 3.14

Q: Query: protein stability index; subject: N10H
A: 2.19

Q: Query: protein stability index; subject: E18Q
A: 2.18

Q: Query: protein stability index; subject: M23W
A: 2.1

Q: Query: protein stability index; subject: A1P
A: 3.16

Q: Query: protein stability index; subject: M4G
A: 4.19

Q: Query: protein stability index; subject: L14I
A: 1.87

Q: Query: protein stability index; subject: D19Y
A: 2.48

Q: Query: protein stability index; subject: R13K
A: 2.67

Q: Query: protein stability index; subject: N7F
A: 1.78

Q: Query: protein stability index; subject: N10V
A: 2

Q: Query: protein stability index; subject: D19S
A: 1.62

Q: Query: protein stability index; subject: M21D
A: 3.83

Q: Query: protein stability index; subject: E18Y
A: 3.52

Q: Query: protein stability index; subject: E18G
A: 2.52

Q: Query: protein stability index; subject: V22S
A: 1.99

Q: Query: protein stability index; subject: M4K
A: 3.77

Q: Query: protein stability index; subject: M4D
A: 4.08

Q: Query: protein stability index; subject: E18K
A: 2.03

Q: Query: protein stability index; subject: N10W
A: 1.68

Q: Query: protein stability index; subject: V17M
A: 2.04

Q: Query: protein stability index; subject: E6H
A: 2.09

Q: Query: protein stability index; subject: A5L
A: 2.48

Q: Query: protein stability index; subject: E6M
A: 4.33

Q: Query: protein stability index; subject: A5K
A: 2.51

Q: Query: protein stability index; subject: V22C
A: 2.19

Q: Query: protein stability index; subject: R13P
A: 3.62

Q: Query: protein stability index; subject: D19A
A: 2.36

Q: Query: protein stability index; subject: E12F
A: 2.22

Q: Query: protein stability index; subject: E18P
A: 3.06

Q: Query: protein stability index; subject: A9Y
A: 2
